# system_name: Nociceptin receptor (Homo sapiens)
# Sequence (P41146 whole entry): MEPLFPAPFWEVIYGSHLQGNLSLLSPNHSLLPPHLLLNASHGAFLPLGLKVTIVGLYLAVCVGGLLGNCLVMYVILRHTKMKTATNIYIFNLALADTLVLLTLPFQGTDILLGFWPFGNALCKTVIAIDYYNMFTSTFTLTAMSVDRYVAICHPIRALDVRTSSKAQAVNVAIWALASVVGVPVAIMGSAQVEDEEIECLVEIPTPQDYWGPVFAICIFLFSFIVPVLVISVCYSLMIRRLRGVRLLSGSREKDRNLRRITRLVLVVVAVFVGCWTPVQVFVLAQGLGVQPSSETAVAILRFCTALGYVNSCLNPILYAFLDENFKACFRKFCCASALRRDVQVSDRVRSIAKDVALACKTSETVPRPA
# test_protocol: Antagonist activity at human ORL1 receptor expressed in CHO cell membrane by [35S]GTP-gamma-S binding assay
# Format: functional, cell membranes
Measured IC50 by item
reported_endpoint: IC50 (nM)

INSERT INTO measurements (cpd_smiles, system_name, reported_endpoint, numeric_value) VALUES
  ('CCC(CC)Sc1nc2cc(Cl)c(N3CCN(CCO)CC3)cc2[nH]1', 'Nociceptin receptor (Homo sapiens)', 'IC50', 3.3),
  ('CC1(Sc2nc3cc(Cl)c(N4CCN(CCO)CC4)cc3[nH]2)CCCCC1', 'Nociceptin receptor (Homo sapiens)', 'IC50', 1.8),
  ('CCC(C)(C)Sc1nc2cc(Cl)c(N3CCN(CCO)CC3)cc2[nH]1', 'Nociceptin receptor (Homo sapiens)', 'IC50', 2.5),
  ('OCCN1CCN(c2cc3[nH]c(SC4CCCCC4)nc3cc2Cl)CC1', 'Nociceptin receptor (Homo sapiens)', 'IC50', 20),
  ('CCC(CC)Sc1nc2cc(Cl)c(N3CCN(CC)CC3)cc2[nH]1', 'Nociceptin receptor (Homo sapiens)', 'IC50', 3.9),
  ('CC(C)(C)Sc1nc2cc(Cl)c(N3CCN(CCO)CC3)cc2[nH]1', 'Nociceptin receptor (Homo sapiens)', 'IC50', 21),
  ('Cc1ccccc1CSc1nc2cc(F)c(N3CCNCC3)cc2[nH]1', 'Nociceptin receptor (Homo sapiens)', 'IC50', 1700),
  ('Fc1cc2nc(SCc3c(Cl)cccc3Cl)[nH]c2cc1N1CCNCC1', 'Nociceptin receptor (Homo sapiens)', 'IC50', 2700),
  ('Fc1cc2nc(SCc3ccccc3Cl)[nH]c2cc1N1CCNCC1', 'Nociceptin receptor (Homo sapiens)', 'IC50', 380),
  ('CCC(C)(CC)Sc1nc2cc(Cl)c(N3CCN(CCO)CC3)cc2[nH]1', 'Nociceptin receptor (Homo sapiens)', 'IC50', 0.66),
  ('Fc1cc2nc(SCC3CCCCC3)[nH]c2cc1N1CCNCC1', 'Nociceptin receptor (Homo sapiens)', 'IC50', 930);
